Measured values drawn from PubChem BioAssay (NCI) for this set.

Tested on: HOP-18 NSCLC
Experiment: NCI tumour cell line growth inhibition, 48 h
Measured Property: TGI (µM)
Give bare numbers, in µM.

CCOc1ccccc1N1C(=O)C(=O)C(c2nc3ccccc3s2)C(=O)C1=O    69.8

Prompt: TGI for O=C(NCc1ccccc1)c1cc2ccc(O)c(O)c2cn1 ?
Response: 44.5

---

Tested on: OVCAR-4 ovarian
Assay: NCI tumour cell line growth inhibition, 48 h
Answer each item with its documented log10 TGI.
A value of 2 here means TGI of 100 in µM, since values are log10.

COc1ccc(NC(=O)Nc2ccccc2CNc2nc(Nc3ccc(OCCN4CCCC4)cc3)ncc2Cl)cc1    0.23

Quick batch: log10 TGI for everything below.
1. COc1cc(-c2cc(/C=C3\C(=O)Nc4cc(Cl)ccc43)[nH]n2)cc(OC)c1OC
2. Oc1c(I)cc(I)cc1CNCCN(Cc1ccccn1)Cc1ccccn1
3. C=CCN1CN(C2CCCCC2)CSC1=S
4. N#CSCc1nc2ccc(Cl)cc2c(-c2ccccc2)[n+]1[O-]

Response:
1.18
0.35
1.44
1.74
